The entries below are paired with their reported pIC50.
- Subject of test: HLA-DRB1*0301 (human)
- Test method notes: competition binding
- Experimental context: modification not given
pIC50: −log10 of the molar value.

Solved entries (count: 2):
                  binder  test_readout  measured_result
0  AEITLTWQRDGEDQT [p42]         pIC50           < 4.00
1   TSVSRPGRGEPRFIA [p3]         pIC50           < 4.00

With those in mind, consider the next binder.
Which pIC50 is reported for this binder? TCVEWLRRYLENGKE [p34*]
< 4.00
